Target: T1, 4H918-AA
T1 chain: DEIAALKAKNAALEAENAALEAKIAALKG
Assay: two-hybrid library CCmax;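 also: natural log of median RNA to DNA barcode read ratio; higher means stronger binding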
Settings: mean of both orientations
endpoint_label: interaction score

DEIAALKAKIAALKAKNAALEAENAALEG [4H883-AA]	-1.46

# input for lookup
q: So what's the measured interaction score for this one? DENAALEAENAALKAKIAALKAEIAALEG [4H1257-AA]
a: -1.05
